Target: hyaluronan synthase (Streptococcus pyogenes, UniProt P0C0H0, K60N)
Construct: FLAG
Sequence (P0C0H0 1-419 K60N): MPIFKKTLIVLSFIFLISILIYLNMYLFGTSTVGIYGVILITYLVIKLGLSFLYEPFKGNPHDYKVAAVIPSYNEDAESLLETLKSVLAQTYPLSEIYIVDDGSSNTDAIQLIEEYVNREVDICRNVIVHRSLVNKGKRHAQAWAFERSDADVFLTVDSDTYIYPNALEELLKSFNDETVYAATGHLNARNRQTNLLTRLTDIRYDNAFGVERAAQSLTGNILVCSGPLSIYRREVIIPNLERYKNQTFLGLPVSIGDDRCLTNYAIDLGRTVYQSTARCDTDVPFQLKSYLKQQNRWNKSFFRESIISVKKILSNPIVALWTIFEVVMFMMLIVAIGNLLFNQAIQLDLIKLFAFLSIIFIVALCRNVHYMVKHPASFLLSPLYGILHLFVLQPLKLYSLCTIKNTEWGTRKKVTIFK
Assay: Inhibitory concentration IC50 of uridine diphosphate against hyaluronan synthase (HPLC of hyaluronan)
Conditions: hyaluronan synthase (B-1) 1.5 U/mL, 40° C., pH 7.5

molecule	IC50 [µM]
O=c1ccn([C@@H]2O[C@H](COP(=O)(O)OP(=O)(O)O)[C@@H](O)[C@H]2O)c(=O)[nH]1 [uridine diphosphate]	110

The origin of these recorded values is patent US9670514B2.
